target: Aldehyde dehydrogenase 1A1 (Homo sapiens); test: qHTS Assay for Inhibitors of Aldehyde Dehydrogenase 1 (ALDH1A1); details: Purified ALDH1A1, NADH fluorescence, propionaldehyde substrate; series mostly up to 75.3 µM
About 16,000 (7.3%) of roughly 220,000 compounds were called active. Inconclusive results (about 25%) are left out. The call rests on the fitted dose curve; in most records, active means well fitted inhibition curve with a large enough effect (not every such curve was filed as active); inconclusive means small, poorly fitted or top-dose-only effect, or another doubt; inactive means no such curve, though single readings can be large or run the other way. This is one part of a sample in which actives are shown more often than they occur.
Outcomes: active, inactive

compound | target | classLabel
CCCCCc1nnc(NC(=O)c2ccc(=O)n(C)n2)s1 | Aldehyde dehydrogenase 1A1 (Homo sapiens) | inactive
COc1ccc(N=C2SC(C(=O)Nc3ccc(F)cc3)CC(=O)N2C)cc1 (configuration not stated) | Aldehyde dehydrogenase 1A1 (Homo sapiens) | inactive
CCOc1ccc(C(=O)NC(=S)Nc2ccc(N3CCOCC3)c(Cl)c2)cc1[N+](=O)[O-] | Aldehyde dehydrogenase 1A1 (Homo sapiens) | active
Cc1cc(/C=N/n2cnnc2)c(C)n1-c1cccc(C(=O)O)c1 | Aldehyde dehydrogenase 1A1 (Homo sapiens) | inactive
O=C(CSc1ccc([N+](=O)[O-])cn1)Nc1ccc(N2CCOCC2)c(Cl)c1 | Aldehyde dehydrogenase 1A1 (Homo sapiens) | active
O=C(NC1CCCCC1)C1CCCN(S(=O)(=O)c2ccc(Br)s2)C1 (configuration not stated) | Aldehyde dehydrogenase 1A1 (Homo sapiens) | inactive
CCOc1ccc(-n2c(O)c(/C=N/Nc3nc(C)cc(C)n3)c3ccccc3c2=O)cc1 | Aldehyde dehydrogenase 1A1 (Homo sapiens) | active
CC(=O)Nc1ccc(NC(=S)NC(=O)c2ccc([N+](=O)[O-])c(C)c2)cc1 | Aldehyde dehydrogenase 1A1 (Homo sapiens) | inactive
O=C(CSc1ccc([N+](=O)[O-])cn1)Nc1ccc(N2CCOCC2)cc1 | Aldehyde dehydrogenase 1A1 (Homo sapiens) | inactive
COc1ccc(-n2cnnc2SCC(=O)Nc2cccc([N+](=O)[O-])c2)cc1 | Aldehyde dehydrogenase 1A1 (Homo sapiens) | inactive
O=C(NNS(=O)(=O)c1ccccc1C(F)(F)F)c1cc2ncc(C(F)(F)F)cc2s1 | Aldehyde dehydrogenase 1A1 (Homo sapiens) | inactive
Cc1c(NC(=O)CCC2CCCCC2)cc(C(=O)N2CCOCC2)cc1[N+](=O)[O-] | Aldehyde dehydrogenase 1A1 (Homo sapiens) | inactive
NC(=O)COC(=O)c1sc2cc(F)ccc2c1Cl | Aldehyde dehydrogenase 1A1 (Homo sapiens) | inactive
Cc1cccc(-n2c(C)cc(/C=N/NC(N)=S)c2C)c1 | Aldehyde dehydrogenase 1A1 (Homo sapiens) | active
CCOC(=O)c1c(NC(=O)c2ccc(N3CCOCC3)c([N+](=O)[O-])c2)sc(C)c1C | Aldehyde dehydrogenase 1A1 (Homo sapiens) | inactive
Cc1ccc2c(Cl)c(C(=O)Nc3nn[nH]n3)sc2c1 | Aldehyde dehydrogenase 1A1 (Homo sapiens) | inactive
CCOc1ccc(/C=N/NC(N)=S)cc1 | Aldehyde dehydrogenase 1A1 (Homo sapiens) | inactive
CCOc1ccc(C(=O)NC(=S)Nc2ccc(NC(=O)C(C)C)cc2)cc1[N+](=O)[O-] | Aldehyde dehydrogenase 1A1 (Homo sapiens) | inactive
CN1CCN(c2ccc(CNS(=O)(=O)c3cccc(F)c3)cc2)CC1 | Aldehyde dehydrogenase 1A1 (Homo sapiens) | inactive
CCOc1ccc(N=Cc2c(O)n(-c3cccc(C)n3)c(=O)c3ccccc23)cc1 | Aldehyde dehydrogenase 1A1 (Homo sapiens) | inactive
O=C(O)c1ccn(COc2ccc(Br)cc2)n1 | Aldehyde dehydrogenase 1A1 (Homo sapiens) | inactive
Cc1cccc(C(=O)OC(C)CN2CCN(C)CC2)c1 (configuration not stated) | Aldehyde dehydrogenase 1A1 (Homo sapiens) | inactive
